SYSTEM UNDER TEST: Glucose transporter (Leishmania mexicana)
ASSAY NOTES: ST_JUDE_LEISH: Cytotoxicity at 2uM final concentration against transgenic Leishmania Mexicana promastigotes LmGT2 that are glucose transport deficient and complemented with the L. Mexicana glucose transporter 2. Activity is measured by DNA content using SYBR green in vitro
Type: functional
MEASURE NAME: inhibition (%)
Give bare numbers, in %.

// worked examples, inhibition included
C=CCOc1ccc2ccccc2c1CNCCCCCCNCc1c(OCC=C)ccc2ccccc12 : 1.05
CCCc1cc(OCCCOc2ccccc2)ccc1OCCCON1C(=N)N=C(N)NC1(C)C : 14
COc1ccc(N2C(N)=NC(N)=NC2(C)C)cc1OC : 5.83
Cc1noc(C)c1-c1ccc(C(=C2CCCCCCC2)c2ccc(O)cc2)cc1 : 5.39
O=C(Nc1ccc(-c2ccccc2)cc1)Nc1cccc(Cn2ncc(N3CCCNCC3)c(Cl)c2=O)c1 : 0.04

Please give inhibition for each item listed below.
1. CCCCc1cc(=O)oc2cc(C)cc(OCc3ccccc3F)c12
2. C[C@H](Nc1nc(C(Oc2ccccc2)c2ccccc2)nc2[nH]ncc12)c1ccccc1 (stereo not given in full)
3. O=C(Nc1nc2cc(S(=O)(=O)NCCc3ccc(F)cc3)ccc2n1CCCn1ccnc1)c1ccc(Cl)cc1
4. CN1CCN(c2ccnc3ccc(NC(=O)Nc4cccc5c(Br)cccc45)cc23)CC1
5. O=C(O)c1ccc(-c2cnc3ccc(NC4CCC(O)CC4)nn23)cc1 (stereo not given)

1: 1.06; 2: 0.54; 3: 1.86; 4: 2.86; 5: -0.34

====

SYSTEM UNDER TEST: Solute carrier family 2, facilitated glucose transporter member 1 (Homo sapiens)
ASSAY NOTES: ST_JUDE_LEISH: Cytotoxicity at 2uM final concentration against transgenic Leishmania Mexicana promastigotes LmGLUT1 that are glucose transport deficient and complemented with the human glucose transporter GLUT1. Activity is measured by DNA content using SYBR green in vitro
Format: functional
MEASURE NAME: inhibition (%)
One number for each entry, in %.

// worked examples, inhibition included
Nc1nc(N)c2c(ccc3nn(C4CCCC4)cc32)n1 : 10.1
Cc1nc(C)c(-c2ccc(S(=O)(=O)c3ccc(Cl)cc3)cc2)c(O)c1Br : 4.93
COc1ccc(CNC2CCN(C)CC2)cc1-c1ccc(OC)c(S(=O)(=O)NCc2ccccc2)c1 : 1.01

Please give inhibition for each item listed below.
1. CCOc1ccc(-c2nonc2NC(=O)c2ccc(F)cc2)cc1OCC
2. O=C(N[C@H]1CCN(Cc2ccc(OC3CCN(Cc4ccccc4)CC3)c(Br)c2)C1)c1ccc(Cl)c(Cl)c1
3. COc1cc(-c2nc(-c3ccccc3)c(-c3ccccc3)[nH]2)ccc1OCCN(C)C

1. -2.77
2. -0.92
3. 1.69

Please give inhibition for each item listed below.
1. COc1ccc2nccc(NC(=O)N3CCC(NCc4cc5ccccc5[nH]4)CC3)c2n1
2. Cc1cc(N)nc2ccc(-c3ccc(CCN)cc3)cc12
3. O=[N+]([O-])c1ccc(Nc2nc(N/N=C/c3cccc(O)c3)nc(N3CCCC3)n2)cc1
4. N#Cc1ccc(-c2cnc3ccc(NCCc4cccnc4)nn23)cc1
5. Cc1c[nH]c(-c2cccc(C(=O)NC3CCC(CCN4CCc5ccc(C#N)cc5CC4)CC3)c2)n1 (stereo not given)
6. CCOC(=O)c1ccc(NC(=O)Nc2ccc(-c3cccc(-c4nc5cc(F)ccc5[nH]4)c3)cc2)cc1

[13.2, 2.07, 3.46, -0.81, 2.16, 2.36]

Please give inhibition for each item listed below.
1. N=C(N)NC(=O)Nc1cc(Cl)c(F)c(Cl)c1
2. O=C(/C=C/c1ccc(Cl)c(Cl)c1)NCCCCCN1CCCN(C(=O)Nc2ccc(Cl)c(C(F)(F)F)c2)CC1
3. O=C(Nc1cccc(CN2CCCN(Cc3ccc(O)cc3)CC2)c1)c1cccc(F)c1
4. CC(C)(C)c1ccc(O)c(CNC2CCCCC2)c1
5. Oc1ccc(CCNCCCCCCNCCc2ccc(Cl)c3ccccc23)cc1O

3.91
-0.86
10.8
4.48
-0.26

Please give inhibition for each item listed below.
1. COc1ccccc1/C=C/C(=O)N(C)C1CCN(CCCCCNC(=O)/C=C/c2ccc(Cl)c(Cl)c2)C1 (stereo not given)
2. COc1ccccc1-c1csc(C(=O)NCC2CCN(Cc3ccc(C(C)C)cc3)C2)c1 (stereo not given)
3. COc1ccc(Nc2nccc(NCCNC(=O)c3cc4ccccc4s3)n2)cc1

1: 1.67; 2: -1.65; 3: 5.11
